assay.target: Sodium/glucose cotransporter 2 (Homo sapiens)
Sequence (P31639 whole entry): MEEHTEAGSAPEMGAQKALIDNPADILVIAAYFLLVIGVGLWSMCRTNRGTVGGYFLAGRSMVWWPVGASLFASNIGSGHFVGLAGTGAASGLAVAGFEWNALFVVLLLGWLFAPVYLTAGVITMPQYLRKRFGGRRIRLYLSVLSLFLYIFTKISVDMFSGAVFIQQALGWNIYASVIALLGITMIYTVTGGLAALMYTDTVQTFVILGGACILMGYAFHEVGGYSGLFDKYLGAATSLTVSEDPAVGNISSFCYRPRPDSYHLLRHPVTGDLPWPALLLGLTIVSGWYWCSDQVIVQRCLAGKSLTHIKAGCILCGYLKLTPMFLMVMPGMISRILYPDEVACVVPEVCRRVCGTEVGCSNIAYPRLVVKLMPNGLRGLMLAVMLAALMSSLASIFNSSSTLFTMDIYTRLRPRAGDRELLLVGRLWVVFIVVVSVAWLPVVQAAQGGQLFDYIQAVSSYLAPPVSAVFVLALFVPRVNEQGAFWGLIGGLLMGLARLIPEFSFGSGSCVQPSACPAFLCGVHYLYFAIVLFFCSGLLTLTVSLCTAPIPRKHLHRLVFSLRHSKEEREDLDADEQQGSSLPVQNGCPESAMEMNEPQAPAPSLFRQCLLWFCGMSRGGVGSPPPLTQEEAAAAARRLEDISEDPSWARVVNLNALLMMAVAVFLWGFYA
measurement.description: Inhibition of human SGLT2 expressed in CHOK1 cells assessed as reduction in sodium-dependent glucose uptake after 1 hr in presence of [14C]-methyl-alpha -D-glucopyranoside by microbeta counting method
Assay type: cell-based
quantity.kind: IC50 (nM)

Here's what some known entries look like.
>>> experimental_value("COc1cc(C(C)C)c(Cc2ccc(/C=C/C(C)(C)C(=O)NC(C)(C)CO)cc2C)cc1[C@@H]1O[C@H](CO)[C@@H](O)[C@H](O)[C@H]1O")
354
>>> experimental_value("COc1cc(C(C)C)c(Cc2ccc(/C=C/C(C)(C)C(=O)NC(C)(C)C(=O)N3CCNCC3)cc2C)cc1[C@@H]1O[C@H](CO)[C@@H](O)[C@H](O)[C@H]1O")
200
>>> experimental_value("Cc1cc(C)c([C@@H]2O[C@H](CO)[C@@H](O)[C@H](O)[C@H]2O)cc1Cc1ccc(/C=C/C(C)(C)C(=O)NC(C)(C)CO)cc1F")
17
>>> experimental_value("Cc1cc(C)c([C@@H]2O[C@H](CO)[C@@H](O)[C@H](O)[C@H]2O)cc1Cc1ccc(/C=C/C(C)(C)C(=O)NC(C)(C)CO)cc1")
10
>>> experimental_value("COc1cc(/C=C/C(C)(C)C(=O)NC(C)(C)CO)ccc1Cc1cc([C@@H]2O[C@H](CO)[C@@H](O)[C@H](O)[C@H]2O)c(C)cc1C")
798
>>> experimental_value("Cc1cc(C)c([C@@H]2O[C@H](CO)[C@@H](O)[C@H](O)[C@H]2O)cc1Cc1ccc(/C=C/C(C)(C)C(=O)NC(C)(C)CO)cc1C(C)C")
2130
>>> experimental_value("Cc1cc(/C=C/C(C)(C)C(=O)NC(C)(C)CO)ccc1Cc1cc([C@@H]2O[C@H](CO)[C@@H](O)[C@H](O)[C@H]2O)c(O)cc1C(C)C")
69
>>> experimental_value("COc1cc(C(C)C)c(Cc2ccc(/C=C/C(C)(C)C(=O)NC(C)(C)C(=O)N3CCN(C)CC3)cc2C)cc1[C@@H]1O[C@H](CO)[C@@H](O)[C@H](O)[C@H]1O")
281
>>> experimental_value("CC(C)c1cc(O)c([C@@H]2O[C@H](CO)[C@@H](O)[C@H](O)[C@H]2O)cc1Cc1ccc(/C=C/C(C)(C)C(=O)NC(C)(C)CO)cc1")
19

I. Cc1cc(/C=C/C(C)(C)C(=O)NC(C)(C)CO)ccc1Cc1cc([C@@H]2O[C@H](CO)[C@@H](O)[C@H](O)[C@H]2O)c(C)cc1C
II. COc1cc(C(C)C)c(Cc2ccc(/C=C/C(C)(C)C(=O)NC(C)(C)CO)cc2)cc1[C@@H]1O[C@H](CO)[C@@H](O)[C@H](O)[C@H]1O
Lab notebook, comparison: I versus II , higher IC50 goes to which? Refer to your chosen entry by its label in the reply.
I
(I: 84 nM, II: 34 nM)
